assay.details: Plasma clearance in dog at 0.5 mg/kg, iv
Format: ADME, organism-based, Canis lupus familiaris
Parameters: dose 0.5 mg/kg, route intravenous
measure: clearance
Report the figure along with its unit, number first.

Qu. Tell me the measured clearance of C[C@@H](NC(=O)Cc1ccc(C2CC2)cc1)c1ccc(OCC(F)(F)F)cn1 , please.
Ans. 0.9 mL/min/kg

* * *

assay.details: Plasma clearance in rat at 2 mg/kg, iv
measure: clearance
Remember to quote the unit after the number.

Qu. What value of clearance has been recorded for this entry: C[C@@H](NC(=O)Cc1ccc(C2CC2)cc1)c1ccc(OCC(F)(F)F)cn1
Ans. 6 mL/min/kg

Origin of measurements: ChEMBL document CHEMBL1681710
